Reported MIC values for the following compounds.
- System: Enterococcus faecalis
- assayMethodText: Antibacterial activity against Enterococcus faecalis ATCC 29212 by NCCLS method
- Format: functional
measuredParameter: MIC (µg/mL)

- compound: "O=C(/C=C/c1ccccc1)NC[C@H]1CN(c2ccc(N3CCN(Cc4ccc([N+](=O)[O-])o4)CC3)c(F)c2)C(=O)O1"
  testedTarget: "Enterococcus faecalis"
  inequalitySign: ">"
  observedResult: 16
- compound: "COCC(=O)NC[C@H]1CN(c2ccc(N3CCN(Cc4ccc([N+](=O)[O-])o4)CC3)c(F)c2)C(=O)O1"
  testedTarget: "Enterococcus faecalis"
  inequalitySign: ">"
  observedResult: 16
- compound: "O=C1O[C@@H](CNc2ccon2)CN1c1ccc(N2CCN(Cc3ccc([N+](=O)[O-])o3)CC2)c(F)c1"
  testedTarget: "Enterococcus faecalis"
  inequalitySign: "="
  observedResult: 2
- compound: "O=CNC[C@H]1CN(c2ccc(N3CCN(Cc4ccc([N+](=O)[O-])o4)CC3)c(F)c2)C(=O)O1"
  testedTarget: "Enterococcus faecalis"
  inequalitySign: "="
  observedResult: 2
- compound: "CSC(=S)NC[C@H]1CN(c2ccc(N3CCN(Cc4ccc([N+](=O)[O-])o4)CC3)c(F)c2)C(=O)O1"
  testedTarget: "Enterococcus faecalis"
  inequalitySign: ">"
  observedResult: 16
- compound: "O=C(NC[C@H]1CN(c2ccc(N3CCN(Cc4ccc([N+](=O)[O-])o4)CC3)c(F)c2)C(=O)O1)c1ccc([N+](=O)[O-])o1"
  testedTarget: "Enterococcus faecalis"
  inequalitySign: "="
  observedResult: 4
- compound: "COC(=O)NC[C@H]1CN(c2ccc(N3CCN(Cc4ccc([N+](=O)[O-])o4)CC3)c(F)c2)C(=O)O1"
  testedTarget: "Enterococcus faecalis"
  inequalitySign: "="
  observedResult: 8
- compound: "CC(Cl)C(=O)NC[C@H]1CN(c2ccc(N3CCN(Cc4ccc([N+](=O)[O-])o4)CC3)c(F)c2)C(=O)O1 (stereo not given in full)"
  testedTarget: "Enterococcus faecalis"
  inequalitySign: ">"
  observedResult: 16
- compound: "CN(C)C(=S)NC[C@H]1CN(c2ccc(N3CCN(Cc4ccc([N+](=O)[O-])o4)CC3)c(F)c2)C(=O)O1"
  testedTarget: "Enterococcus faecalis"
  inequalitySign: ">"
  observedResult: 16
- compound: "O=C(/C=C/c1ccc(F)cc1)NC[C@H]1CN(c2ccc(N3CCN(Cc4ccc([N+](=O)[O-])o4)CC3)c(F)c2)C(=O)O1"
  testedTarget: "Enterococcus faecalis"
  inequalitySign: ">"
  observedResult: 16
- compound: "NC(=S)NC[C@H]1CN(c2ccc(N3CCN(Cc4ccc([N+](=O)[O-])o4)CC3)c(F)c2)C(=O)O1"
  testedTarget: "Enterococcus faecalis"
  inequalitySign: "="
  observedResult: 0.5
- compound: "O=C(NC[C@H]1CN(c2ccc(N3CCN(Cc4ccc([N+](=O)[O-])o4)CC3)c(F)c2)C(=O)O1)c1ccc(Br)o1"
  testedTarget: "Enterococcus faecalis"
  inequalitySign: ">"
  observedResult: 16
- compound: "COC(=S)NC[C@H]1CN(c2ccc(N3CCN(Cc4ccc([N+](=O)[O-])o4)CC3)c(F)c2)C(=O)O1"
  testedTarget: "Enterococcus faecalis"
  inequalitySign: "="
  observedResult: 1
- compound: "O=C(NC[C@H]1CN(c2ccc(N3CCN(Cc4ccc([N+](=O)[O-])o4)CC3)c(F)c2)C(=O)O1)c1cc2ccccc2o1"
  testedTarget: "Enterococcus faecalis"
  inequalitySign: ">"
  observedResult: 16
- compound: "O=C(NC[C@H]1CN(c2ccc(N3CCN(Cc4ccc([N+](=O)[O-])o4)CC3)c(F)c2)C(=O)O1)c1ccc([N+](=O)[O-])s1"
  testedTarget: "Enterococcus faecalis"
  inequalitySign: ">"
  observedResult: 16
